# Tested on: Concanavalin A-Induced Inflammation
# experiment description: Concanavalin A-induced mouse paw edema model
# Type: in vivo, C57BL/6 female mice
# protocol conditions: Mus musculus, ip; anti-inflammatory activity relative to control group; 20 mg/kg i.p. twice; read-out: Concanavalin A-Induced Inflammation AIA, %
Examples of compounds with documented inhibition in vivo at 20 mg/kg follow.
Record the result as number plus unit.

[
  {
    "compound": "CC(C)(O)c1cc2cccc3c2c(n1)-c1ccccc1C3=O",
    "quantity name": "inhibition in vivo at 20 mg/kg",
    "value": "41%"
  },
  {
    "compound": "CCCCCc1cc2cccc3c2c(n1)-c1ccccc1C3=O",
    "quantity name": "inhibition in vivo at 20 mg/kg",
    "value": "48%"
  }
]

Given COc1ccc(-c2cc3cccc4c3c(n2)-c2ccccc2C4=O)cc1 , report its inhibition in vivo at 20 mg/kg on Concanavalin A-Induced Inflammation.
60%

Specify the recorded inhibition in vivo at 20 mg/kg for CC(=O)c1ccc(-c2cc3cccc4c3c(n2)-c2ccccc2C4=O)cc1 , system: Concanavalin A-Induced Inflammation.
52%

Give inhibition in vivo at 20 mg/kg for this entry on Concanavalin A-Induced Inflammation: O=C1c2ccccc2-c2nc(-c3ccccc3)cc3cccc1c23 [3a, 2-phenyl-7H-dibenzo[de,h]quinolin-7-one]
53%

Data credit: paper PMC8621605
